Target: T1, ActRIIB-Fc homodimer (UniProt Q13705 19-137)
T1 construct: extracellular domain; also called ActRIIB homodimer
T1 sequence (looked up): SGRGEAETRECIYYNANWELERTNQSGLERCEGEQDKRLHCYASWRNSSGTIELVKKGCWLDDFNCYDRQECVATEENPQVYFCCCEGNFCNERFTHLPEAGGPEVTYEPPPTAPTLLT
Assay: Biacore SPR
measured-endpoint: Kd
Field note: include the unit after the figure.

Recorded Kd, per entry:
| binder | Kd |
| --- | --- |
| BMP10 (ligand, UniProt O95393 317-424, looked up) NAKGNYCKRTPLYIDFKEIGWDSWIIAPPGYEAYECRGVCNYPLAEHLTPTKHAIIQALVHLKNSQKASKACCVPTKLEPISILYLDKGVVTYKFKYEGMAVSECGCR | 18 pM |
| BMP9 (ligand, UniProt Q9UK05 320-429, looked up, also called GDF2) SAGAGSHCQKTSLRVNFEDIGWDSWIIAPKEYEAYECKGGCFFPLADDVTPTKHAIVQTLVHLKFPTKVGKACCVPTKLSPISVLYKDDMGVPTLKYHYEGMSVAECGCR | 34 pM |
| GDF3 (ligand, UniProt Q9NR23 251-364, looked up) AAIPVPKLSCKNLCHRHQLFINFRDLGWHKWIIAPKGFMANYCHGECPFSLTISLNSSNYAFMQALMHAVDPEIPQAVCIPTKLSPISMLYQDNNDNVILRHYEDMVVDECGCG | 3900 pM |

For every item below, please supply its Kd.
1. activin A (ligand, UniProt P08476 311-426, looked up) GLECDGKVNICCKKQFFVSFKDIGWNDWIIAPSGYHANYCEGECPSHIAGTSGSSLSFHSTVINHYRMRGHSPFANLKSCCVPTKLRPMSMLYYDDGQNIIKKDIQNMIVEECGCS
2. activin B (ligand, UniProt P09529 293-407, looked up) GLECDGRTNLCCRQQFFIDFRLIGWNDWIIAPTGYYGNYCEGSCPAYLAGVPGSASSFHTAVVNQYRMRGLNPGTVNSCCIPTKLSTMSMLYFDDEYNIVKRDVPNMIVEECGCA
3. GDF11 (ligand, UniProt O95390 299-407, looked up, also called BMP11) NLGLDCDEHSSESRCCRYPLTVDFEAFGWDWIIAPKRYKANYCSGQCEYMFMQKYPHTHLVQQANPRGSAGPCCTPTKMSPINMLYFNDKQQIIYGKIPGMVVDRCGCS

A.
["19 pM", "20 pM", "74 pM"]
